test system: Aliivibrio fischeri; assay: Tested for the ability to interfere with the induction of luminescence by N-3-oxohexanoyl-L-homoserine lactone in the Vibrio fischeri QS system; type: functional, organism-based
Measured IC50 by item
Report the figure along with its unit, number first.

Some compounds with recorded IC50:
| Compound | Reported |
| --- | --- |
| O=C1OCCC1NS(=O)(=O)CCc1ccccc1 (centres undefined) | 3 µM |
| O=C1OCCC1NS(=O)(=O)CCCc1ccccc1 (centres undefined) | 20 µM |
| CCCCCS(=O)(=O)NC1CCOC1=O (centres undefined) | 2 µM |
| CCCCS(=O)(=O)NC1CCOC1=O (centres undefined) | 12 µM |
| CCCCCCCS(=O)(=O)NC1CCOC1=O (centres undefined) | 9 µM |
| CCCCCCCCS(=O)(=O)NC1CCOC1=O (centres undefined) | 10 µM |
| O=C(CC(=O)NC1CCOC1=O)Cc1ccccc1 (centres undefined) | 2 µM |
| CCCCCCS(=O)(=O)NC1CCOC1=O (centres undefined) | 6.5 µM |

Now consider the entry below.
Q: # return IC50 for O=C(CCCc1ccccc1)NC1CCOC1=O (centres undefined) , test system: Aliivibrio fischeri
Ans: 2 µM
